Provenance of the data: ChEMBL document CHEMBL1201862

# tgt: Alkaline phosphatase, tissue-nonspecific isozyme (Homo sapiens)
# Sequence (P05186 whole entry): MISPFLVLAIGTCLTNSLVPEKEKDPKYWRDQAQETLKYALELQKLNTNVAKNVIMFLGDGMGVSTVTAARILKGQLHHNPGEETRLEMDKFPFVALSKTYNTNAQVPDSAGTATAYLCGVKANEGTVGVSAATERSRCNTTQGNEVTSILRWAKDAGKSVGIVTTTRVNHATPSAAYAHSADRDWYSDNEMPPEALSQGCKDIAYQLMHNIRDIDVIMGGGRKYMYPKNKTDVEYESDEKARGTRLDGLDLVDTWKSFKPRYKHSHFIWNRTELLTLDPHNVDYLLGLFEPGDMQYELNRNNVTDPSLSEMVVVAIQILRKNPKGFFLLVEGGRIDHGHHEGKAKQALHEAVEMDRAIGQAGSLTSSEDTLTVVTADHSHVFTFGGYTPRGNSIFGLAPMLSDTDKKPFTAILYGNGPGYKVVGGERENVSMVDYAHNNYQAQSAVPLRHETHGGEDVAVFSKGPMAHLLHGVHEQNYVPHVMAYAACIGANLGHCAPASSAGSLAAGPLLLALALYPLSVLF
# method description: TNAP enzyme inhibition by screening hits, dose response, selectivity assay for mouse IAP inhibitor project, biochemical, human TNAP, uHTS hits (AID 488906)
# Type: functional
Active and inactive are the calls of the source.
Form entry, call: pick from 1 (yes) = active, 0 (no) = inactive

# input Called result for `N#Cc1c(SCC(=O)Nc2nncs2)sc2c(O)cc(=O)[nH]c12`
# output 0 (no)

# input Outcome? `O=C(N/N=C/c1ccc([N+](=O)[O-])o1)c1sc2ccccc2c1Cl`
# output 0 (no)

# input Write down the call the test reported for this molecule. Item: `O=[N+]([O-])c1c(O)nc(/C=C\c2ccc(O)c(O)c2)nc1O`
# output 1 (yes)

# input Given CCN(C(=O)C(C)N1C(=O)/C(=C/c2ccco2)SC1=S)C1CCS(=O)(=O)C1 (stereo unspecified) , state the outcome it received in this test.
# output 1 (yes)

# input Can you look up the reported call for COc1ccc(C2CC(c3ccccc3Cl)=NN2c2ccc(S(N)(=O)=O)cc2)cc1 (stereo unspecified) for me?
# output 0 (no)

# input Entry `Cc1ccc(Cl)c2c(C3=NC(=S)NC3=O)c(O)[nH]c12` : call = ?
# output 1 (yes)

====

Field: AC50. Provide a value for each of the molecules that follow.

# input I'm curious: which AC50 was measured for COc1ccccc1CN(Cc1cc2cc(C)cc(C)c2nc1O)Cc1nnnn1CC1CCCO1 (configuration not stated) tested on Cytochrome P450 2C9 (Homo sapiens)?
# output 14.1 µM (inconclusive)

# input Lab note: need AC50 for `Nc1ccc(O)c(C(=O)O)c1` on Cytochrome P450 2C9 (Homo sapiens), anyone have it?
# output 12.6 µM (inconclusive)

# input Recall the recorded AC50 for CC(O)(CS(=O)(=O)Cc1ccccc1Cl)C(=O)Nc1cccc(C(F)(F)F)c1 (configuration not stated) with Cytochrome P450 2C9 (Homo sapiens) and state it.
# Sequence (P11712 whole entry): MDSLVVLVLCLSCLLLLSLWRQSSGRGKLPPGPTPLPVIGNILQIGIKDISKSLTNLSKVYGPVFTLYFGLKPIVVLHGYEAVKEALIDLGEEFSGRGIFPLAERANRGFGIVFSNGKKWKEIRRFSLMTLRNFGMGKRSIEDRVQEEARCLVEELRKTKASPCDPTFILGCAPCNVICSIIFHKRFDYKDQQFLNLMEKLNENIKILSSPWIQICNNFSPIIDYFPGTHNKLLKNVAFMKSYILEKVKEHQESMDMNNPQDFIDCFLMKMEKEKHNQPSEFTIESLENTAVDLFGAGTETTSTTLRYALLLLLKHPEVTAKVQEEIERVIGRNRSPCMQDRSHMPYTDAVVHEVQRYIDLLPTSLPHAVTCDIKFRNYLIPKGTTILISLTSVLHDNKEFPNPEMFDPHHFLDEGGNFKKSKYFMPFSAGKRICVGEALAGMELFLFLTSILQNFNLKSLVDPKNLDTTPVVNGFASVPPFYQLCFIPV
# output 11.2 µM (inconclusive)

# input Item: `CN(C)c1ncc2nc(-c3ccccc3)c(=O)n(Cc3cccs3)c2n1` Test system: Cytochrome P450 2C9 (Homo sapiens) Read-out: AC50 Value: ?
# output 10 µM (inconclusive)

# input Any idea what AC50 came out for `Cn1c(=O)c(-c2ccccc2)nc2cnc(N3CCOCC3)nc21` on Cytochrome P450 2C9 (Homo sapiens)?
# output 39.8 µM (inconclusive)

# input Hello, I am looking for reported AC50 with Cytochrome P450 2C9 (Homo sapiens) for `CCCC[C@H]1C(=O)N(c2ccccc2)N(c2ccc(O)cc2)C1=O` . Could you help?
# output 12.6 µM (inconclusive)

# input Quick check: AC50 on Cytochrome P450 2C9 (Homo sapiens), item `c1ccc(Cn2c(CN3CCCC3)nc3ccccc32)cc1` ?
# output 35.5 µM (inconclusive)

# input Recorded AC50 for CC(O)(CS(=O)(=O)c1ccccc1)C(=O)Nc1cccc(C(F)(F)F)c1 (configuration not stated) with Cytochrome P450 2C9 (Homo sapiens), please?
# output 35.5 µM (inconclusive)

# input Hello, I am looking for reported AC50 with Cytochrome P450 2C9 (Homo sapiens) for COc1ccc(-c2cc(C(F)(F)F)n3ncc(C(=O)NCC4CCCO4)c3n2)cc1OC (configuration not stated) . Could you help?
# output 7.94 µM (inconclusive)

# input I'm curious: which AC50 was measured for CC(C(=O)c1c[nH]c2ccccc12)N1CCSCC1 (configuration not stated) tested on Cytochrome P450 2C9 (Homo sapiens)?
# output 31.6 µM (inconclusive)

# input Lookup: AC50 / Cytochrome P450 2C9 (Homo sapiens) / Cc1cccc(N(C)C(=S)Oc2ccc3ccccc3c2)c1 [TOLNAFTATE]
# output 1.26 µM (inconclusive)

# input Observed AC50 on Cytochrome P450 2C9 (Homo sapiens) for `COc1ccc(Oc2ncc3nc(C)c(=O)n(-c4ccc(OC)cc4)c3n2)cc1` , please.
# output 39.8 µM (inconclusive)

# input // map `Cc1ccc(NC(=S)c2nc3ccccc3s2)cc1` to recorded AC50 (system: Cytochrome P450 2C9 (Homo sapiens))
# output 10 µM (inconclusive)

# input Recorded AC50 for O=C(C1CCC(=O)N1Cc1ccccc1Cl)N1CCN(c2ccc(F)cc2)CC1 (configuration not stated) with Cytochrome P450 2C9 (Homo sapiens), please?
# output 25.1 µM (inconclusive)

# input Please tell me: AC50 of `O=C(O)CCc1ccc(-c2ccc(Cl)cc2)n1CCC(=O)O` , system Cytochrome P450 2C9 (Homo sapiens)?
# output 31.6 µM (inconclusive)

# input Observed AC50 on Cytochrome P450 2C9 (Homo sapiens) for COCCN=C(S)N1C2CCC1CC(NC(=O)NC13CC4CC(CC(C4)C1)C3)C2 (configuration not stated) , please.
# output 14.1 µM (inconclusive)

# input Test system Cytochrome P450 2C9 (Homo sapiens); read-out AC50; what value for `Cc1cc(C)n(-c2nc(Nc3ccccc3C)nc(-n3nc(C)cc3C)n2)n1` ?
# output 15.8 µM (inconclusive)

# input Enter reported AC50 observed with Cytochrome P450 2C9 (Homo sapiens) for `O=c1cnc2cnc(N3CCOCC3)nc2n1Cc1cccs1`
# output 31.6 µM (inconclusive)

# input Param readout= AC50; system= Cytochrome P450 2C9 (Homo sapiens); entry= `COc1ccc(NC(=O)CSc2nc(C)c3c(c2C#N)CCCC3)cc1` ; returns value.
# output 8.91 µM (inconclusive)

# input Kindly state the measured AC50 obtained for `N#CCCn1c(=O)c(-c2cccc(C#N)c2)nc2cnc(Oc3cccc(Cl)c3)nc21` with Cytochrome P450 2C9 (Homo sapiens).
# output 12.6 µM (inconclusive)

# input Could you share what AC50 was measured for `CCSc1c(C(=O)NC)ccc2c1C(=O)c1ccccc1C2=O` , tested on Cytochrome P450 2C9 (Homo sapiens)?
# output 10 µM (inconclusive)

# input Can you look up AC50 on Cytochrome P450 2C9 (Homo sapiens) for NS(=O)(=O)c1cc2c(cc1Cl)N=C(CSCc1ccccc1)NS2(=O)=O [BENZTHIAZIDE] ?
# output 3.98 µM (inconclusive)
